measurement notes: Oral MDZ (1.5 mg p.o.) plasma pharmacokinetics (MDZ and 1′-OH-MDZ) alone and after repeated inhibitor administration
cond: human, in vivo, po, 1.5 mg, MDZ AUC0– (zero to infinity), MDZ alone, MDZ 1.5 mg p.o.; ITZ arm (Table S3); geometric mean (90% CI)
value type: AUC (ng·h/mL)
I only need the number, in ng·h/mL, no unit after it.

Challenge: Looking for the measured AUC of Cc1ncc2n1-c1ccc(Cl)cc1C(c1ccccc1F)=NC2 , can you help?
Response given: 9.64

---

Tested on: CYP3A
measurement notes: Oral MDZ (1.5 mg p.o.) plasma pharmacokinetics (MDZ and 1′-OH-MDZ) alone and after repeated inhibitor administration
cond: human, in vivo, po, 1.5 mg, Oral MDZ AUC0-inf, Baseline, ITZ arm; MDZ 1.5 mg p.o. before inhibitor; geometric mean (range)
value type: AUC(0-inf) (ng·h/mL)
Give just the numeric value; ng·h/mL need not be written.

Challenge: Entry Cc1ncc2n1-c1ccc(Cl)cc1C(c1ccccc1F)=NC2 [MDZ, midazolam] : reported AUC(0-inf) = ?
Response given: 10.8

---

measurement notes: Oral MDZ (1.5 mg p.o.) plasma pharmacokinetics (MDZ and 1′-OH-MDZ) alone and after repeated inhibitor administration
cond: human, in vivo, po, 1.5 mg, MDZ Cmax, MDZ alone, MDZ 1.5 mg p.o.; FKZ arm (Table S2); geometric mean (90% CI)
value type: Cmax (ng/mL)
Answer with a number only, understood to be in ng/mL.

Challenge: # input compound: Cc1ncc2n1-c1ccc(Cl)cc1C(c1ccccc1F)=NC2 [MDZ, midazolam] ; wanted: its Cmax
Response given: 6.18

---

measurement notes: Intravenous MDZ (1.0 mg i.v.) plasma pharmacokinetics (MDZ and 1′-OH-MDZ) alone and after repeated inhibitor administration
cond: human, in vivo, iv, 1 mg, i.v. MDZ AUC0-inf, Baseline, APZ arm; MDZ 1.0 mg i.v. before inhibitor; geometric mean (range)
value type: AUC(0-inf) (µg·h/mL)
Number only, in µg·h/mL; omit the unit.

Challenge: # AUC(0-inf) lookup, item Cc1ncc2n1-c1ccc(Cl)cc1C(c1ccccc1F)=NC2
Response given: 0.0168

---

measurement notes: Intravenous MDZ (1.0 mg i.v.) plasma pharmacokinetics (MDZ and 1′-OH-MDZ) alone and after repeated inhibitor administration
cond: human, in vivo, iv, 1 mg, MDZ AUClast, MDZ alone, MDZ 1 mg i.v.; ITZ arm (Table S3); geometric mean (90% CI)
value type: AUC(0-t) (ng·h/mL)
Numbers only; they are read as ng·h/mL.

Challenge: Requested field: AUC(0-t). Item: Cc1ncc2n1-c1ccc(Cl)cc1C(c1ccccc1F)=NC2 [MDZ, midazolam]
Response given: 12.9

---

measurement notes: Oral MDZ (1.5 mg p.o.) plasma pharmacokinetics (MDZ and 1′-OH-MDZ) alone and after repeated inhibitor administration
cond: human, in vivo, po, 1.5 mg, MDZ AUClast, MDZ alone, MDZ 1.5 mg p.o.; FKZ arm (Table S2); geometric mean (90% CI)
value type: AUC(0-t)

Challenge: # lookup: AUC(0-t) of Cc1ncc2n1-c1ccc(Cl)cc1C(c1ccccc1F)=NC2
Response given: 18.5 ng·h/mL

---

measurement notes: Oral MDZ (1.5 mg p.o.) plasma pharmacokinetics (MDZ and 1′-OH-MDZ) alone and after repeated inhibitor administration
cond: human, in vivo, po, 1.5 mg, Oral MDZ AUC0-inf, Baseline, APZ arm; MDZ 1.5 mg p.o. before inhibitor; geometric mean (range)
value type: AUC(0-inf) (ng·h/mL)
API: value field is a number in ng·h/mL; no unit string.

Challenge: What does the data say about its AUC(0-inf)? Entry: Cc1ncc2n1-c1ccc(Cl)cc1C(c1ccccc1F)=NC2
Response given: 10.6

meta.source: paper PMC8224742
